# tested target: HIV integrase (Human immunodeficiency virus type 1 group M subtype B, UniProt P12497, F1332H)
# Construct: HIV integrase full length gene
# assay remarks: Determination of enzyme (HIV integrase) inhibitory activity
# conditions used: recombinant integrase protein (phenylalanine at codon 185 substituted by histidine); donor/target DNA, absorbance at 450 nm; read-out: Anti-integrase activity (IC50 value)
attribute measured: IC50

> print(dat)
                           substance.smiles  experimental.value
1  CCOC(=O)NCc1cc(C(=O)O)c(=O)n2cc(Cc3cccc(Cl)c3F)ccc12        10 to 100 nM
2  CCc1cc(C(=O)O)c(=O)n2cc(Cc3cccc(Cl)c3F)ccc12        10 to 100 nM
3  CC(C)(C)[C@@H](CO)c1cc(C(=O)O)c(=O)n2cc(Cc3cccc(Cl)c3Cl)ccc12             < 10 nM
4  O=C(COc1ccccc1)NCc1cc(C(=O)O)c(=O)n2cc(Cc3cccc(Cl)c3F)ccc12        10 to 100 nM
